test: In vivo pharmacokinetic profiles in male ICR mice; conditions: male, ICR, mouse, plasma, iv, 2 mg/kg
property-name: clearance (mL/min/kg)
Value expressed in mL/min/kg; do not type the unit.

>>> readout_number("N#Cc1cc(C(F)(F)F)cc2c(=O)nc(N3CCN(CC4CCCCC4)CC3)sc12")
71.2

Field: next molecule
Which clearance is listed for O=c1nc(N2CCN(CC3CCCCC3)CC2)sc2c([N+](=O)[O-])cc(C(F)(F)F)cc12 [Macozinone, reference compound] ?
75.8

* * *

// reported AUC(0-t) for each item listed
experiment: In vivo pharmacokinetic profiles in male ICR mice; conditions: male, ICR, mouse, plasma, iv, 2 mg/kg
Value expressed in ng·h/mL; do not type the unit.

>>> readout_number("N#Cc1cc(C(F)(F)F)cc2c(=O)nc(N3CCN(CC4CCCCC4)CC3)sc12 [Compound 1d]")
445

Which AUC(0-t) is listed for O=c1nc(N2CCN(CC3CCCCC3)CC2)sc2c([N+](=O)[O-])cc(C(F)(F)F)cc12 [Macozinone, reference compound] ?
423
